# targetOrSystem: viral helicase (Hepatitis C virus (isolate H77), UniProt P27958)
# Sequence (P27958 1027-1657): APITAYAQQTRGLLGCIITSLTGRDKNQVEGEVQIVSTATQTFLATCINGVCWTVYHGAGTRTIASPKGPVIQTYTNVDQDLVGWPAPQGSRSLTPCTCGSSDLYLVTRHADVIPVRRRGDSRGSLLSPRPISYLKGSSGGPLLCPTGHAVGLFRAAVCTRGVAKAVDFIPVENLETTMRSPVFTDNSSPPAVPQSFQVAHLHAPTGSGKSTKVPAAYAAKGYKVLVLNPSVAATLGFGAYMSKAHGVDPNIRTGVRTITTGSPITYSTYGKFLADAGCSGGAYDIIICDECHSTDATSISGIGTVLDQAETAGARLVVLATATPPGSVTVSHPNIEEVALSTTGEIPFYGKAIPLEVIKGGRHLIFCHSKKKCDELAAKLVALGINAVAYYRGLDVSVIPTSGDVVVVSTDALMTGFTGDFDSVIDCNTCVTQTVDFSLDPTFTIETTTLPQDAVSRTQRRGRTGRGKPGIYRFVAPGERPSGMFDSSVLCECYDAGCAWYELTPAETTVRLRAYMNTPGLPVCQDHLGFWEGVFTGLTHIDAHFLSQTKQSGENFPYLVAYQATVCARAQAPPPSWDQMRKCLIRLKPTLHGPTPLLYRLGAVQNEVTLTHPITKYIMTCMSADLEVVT
# protocolSummary: Assay for Helicase Inhibition
# experimentalContext: average of three test results; read-out: IC50 (concentration required to achieve a 50% inhibition of helicase activity)
pIC50: −log10 of the molar value.
observationType: pIC50

INSERT INTO assay_data (molecule, reportedmeasurement) VALUES
  ('c1cc(CN2CCC(C3=N[C@@H]4CCCC[C@H]4N3)CC2)ccc1CN1CCC(C2=N[C@@H]3CCCC[C@H]3N2)CC1 (relative stereo)', 5.15);

Sourced from patent US5830905A
